# Target or system: rFzd-1 (frizzled-1 receptor) (rat, UniProt Q08463 69-641)
# Sequence (Q08463 69-641): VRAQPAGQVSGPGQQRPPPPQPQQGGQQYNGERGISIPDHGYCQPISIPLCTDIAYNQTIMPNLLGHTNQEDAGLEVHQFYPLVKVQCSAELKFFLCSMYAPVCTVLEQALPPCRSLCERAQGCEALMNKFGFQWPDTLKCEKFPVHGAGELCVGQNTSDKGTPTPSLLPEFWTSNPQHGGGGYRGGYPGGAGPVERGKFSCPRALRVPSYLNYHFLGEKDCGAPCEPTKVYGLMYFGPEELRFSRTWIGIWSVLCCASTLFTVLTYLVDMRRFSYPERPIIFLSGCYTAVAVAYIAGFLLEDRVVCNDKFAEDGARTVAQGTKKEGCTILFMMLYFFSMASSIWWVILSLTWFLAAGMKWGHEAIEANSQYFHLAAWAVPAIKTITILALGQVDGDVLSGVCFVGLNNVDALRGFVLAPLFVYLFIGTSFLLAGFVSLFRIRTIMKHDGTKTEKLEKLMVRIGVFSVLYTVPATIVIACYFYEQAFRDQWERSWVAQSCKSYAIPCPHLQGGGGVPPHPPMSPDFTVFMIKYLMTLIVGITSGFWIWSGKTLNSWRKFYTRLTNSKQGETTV
# Procedure details: cell-based or functional assay
Parameter: % of inhibition of Wnt3a-induced luciferase activity (peptide at 1.10^-9 M) (%)

>>> reported_measurement("CNKTSEGMDGCAL [UM206 (12 E = A)]")
65.9
>>> reported_measurement("Ac-CNKTSEGMDGCEL-NH2 (cysteine pairing not given here) [Peptide UM206 (linear), Ac-Cys-Asn-Lys-Thr-Ser-Glu-Gly-Met-Asp-Gly-Cys-Glu-Leu-NH2]")
72.2
>>> reported_measurement("CNKTSEGMDGCAA [UM206 (12-13 EL = AA)]")
66.8
>>> reported_measurement("CNATSEGMDGCEL [UM206 (3 K = A)]")
70.8
>>> reported_measurement("CNKTSEGADGCEL [UM206 (8 M = A)]")
67.6
>>> reported_measurement("CNKTAEGMDGCEL [UM206 (5 S = A)]")
74.3

Data provenance is patent US20150071856A1.
